Recorded values, source patent US20250250357A1.

Recorded OD450 for the following binders
Target: T1, human MSLN-FL-his protein (human, UniProt Q13421 296-580)
T1 construct: Made in HEK293E cells, purified on nickel column; also called hMSLN-FL-his; human MSLN full-length protein; not shown: His tag
T1 sequence (Q13421 other isoform, or with tags, fused parts or gaps): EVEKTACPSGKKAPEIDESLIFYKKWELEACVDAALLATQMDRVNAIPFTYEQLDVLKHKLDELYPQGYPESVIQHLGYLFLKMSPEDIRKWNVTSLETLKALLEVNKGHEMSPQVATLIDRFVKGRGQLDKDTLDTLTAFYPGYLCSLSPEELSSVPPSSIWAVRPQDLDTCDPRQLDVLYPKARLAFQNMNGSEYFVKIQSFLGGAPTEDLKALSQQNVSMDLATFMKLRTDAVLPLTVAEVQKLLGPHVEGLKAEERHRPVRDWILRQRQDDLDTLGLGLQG
Test: ELISA, coated antigen, antibody 0.0002 nM
Please give only the number in your answer, with no unit.

Guide cases for OD450, answers given:
BINDER	OD450
S009-F7.33.24 chimeric antibody (antibody, human IgG1, kappa, V domains shown, Human-murine chimeric antibody, human IgG1/kappa constant regions) VH: QVQLQQPGTELVKPGASVKLSCKASGYTFTSYWMHWVKQRPGQGLEWIGNVNPSNGGSNYNEKFKNKATLTVDKSSSTADMQLNSLTSEDSAVYYCAPHYIGSRPGFAYWGQGTLVTVSG VL: DIVMTQSQKFMSTSVGDRVSVTCKASQNVGTNIAWYQQKPGQSPKALIYSASYRYSGVPDRFTGSGSGTDFTLTITNVQSEDLAEYFCQQYNSYPLTFGGGTKVEIKR	0.26
S009-F7.25.19 chimeric antibody (antibody, human IgG1, kappa, V domains shown, Human-murine chimeric antibody, human IgG1/kappa constant regions) VH: QVQLQQPGTELVKPGASVKLSCKASGYTFTSYWMHWVKQRPGQGLEWIGNIIPSNGGTKYNEKFKSKATLTVDKSSSTAYMQLSSLTSEDSAVYYCSPHYYGGSPGFAYWGQGTLITVSA VL: DIVMTQSQKFMSTSVGDRVSVICKASQNVGTNVAWYQQKPGQSPKALIYSASYRYSGVPDRFTGSGSGTDFTLTISNVQSEDLAEYFCQQYNSYPLTFGGGTKLEIKR	0.52
S009-F7.66.12 chimeric antibody (antibody, human IgG1, kappa, V domains shown, Human-murine chimeric antibody, human IgG1/kappa constant regions) VH: QIPLQQSGPELVKPGASVRISCKASDYAFSSSWMNWVKQRPEKGLEWIGRIFVESGNTHYNDKFNGKATLTADKSSRTAYIQLSSLTSEDSAVYFCTRENIFYHGHSSWFAYWGQGTLVTVSA VL: DIVLTQSPASLVVSLGQRATISCRAGESVDDFGISYVHWYQQKPGQPPKLLIYRAANLESGIPARFSGSGSRTDFTLTINPVETDDVAIYYCQQNNKDPFTFGSGTKLEIKR	0.77

Now consider the entry below.
Lookup result for S009-F7.2.3 chimeric antibody (antibody, human IgG1, kappa, V domains shown, Human-murine chimeric antibody, human IgG1/kappa constant regions) VH: ELQLVESGGDLVKPGGSLKLSCAASGFTFSSNGMSWLRQTPDKRLEWVATISSGGRYTYYPDSVKGRFTISRDNAKNTLYLQMSSLKSEDTAMYYCARRGIYDYFDCWGQGTTLTVSS VL: DIQMTQSPASLSISVGETVTITCRASENIHSSLAWYQQKQGKSPQLLVYAATNLADGVPSRFSGSGSGSQYSLKINSLQSEDFGTYYCQHFWGTPWTFGGGTKLDIKR ; measured OD450: 0.15
